- assay.notes: Stability of the compound in simulated intestinal acid at pH 6.5 measured after 1 hr by LC-MS/MS analysis
- Assay type: ADME
- condition: read-out: Stability
result.type: remaining at 1 h (%)
Please respond with the number in % and leave the unit unwritten.

Incoming: Please give measured remaining at 1 h of the following entry: COc1cccc(C2CC(=O)c3cc(NC(=O)c4cc(OC)c(OC)c(OC)c4)ccc3O2)c1 (racemic)
Outgoing: 88

---

- assay.notes: AUC in Sprague-Dawley rat at 10 mg/kg, po by LC-MS/MS analysis
- Assay type: ADME, organism-based
- Set-up: dose 10 mg/kg
- condition: in vivo
result.type: AUC (ng·h/mL)
Please respond with the number in ng·h/mL and leave the unit unwritten.

Incoming: Please give measured AUC of the following entry: COc1cccc(C2CC(=O)c3cc(NC(=O)c4cc(OC)c(OC)c(OC)c4)ccc3O2)c1 (racemic)
Outgoing: 6530

---

- assay.notes: Cmax in Sprague-Dawley rat at 10 mg/kg, po by LC-MS/MS analysis
- Type: ADME, organism-based
- Set-up: route oral, dose 10 mg/kg
- condition: in vivo
result.type: Cmax (ng/mL)
Please respond with the number in ng/mL and leave the unit unwritten.

Incoming: Please give measured Cmax of the following entry: COc1cccc(C2CC(=O)c3cc(NC(=O)c4cc(OC)c(OC)c(OC)c4)ccc3O2)c1 (racemic)
Outgoing: 858

---

- Tested on: Calvarial osteoblast
- assay.notes: Induction of osteoblast differentiation in rat Calvaria osteoblast cells measured assessed as maximal increase in alkaline phosphatase activity incubated for 48 hrs using PNPP as substrate
- Type: functional
result.type: ECmax (pM)
Please respond with the number in pM and leave the unit unwritten.

The following compounds have reported results that may help.
                                   compound  observed_result
0  COc1cccc(C2CC(=O)c3cc(NC(=O)c4cc(OC)c(OC)c(OC)c4)ccc3O2)c1 (racemic)             1000
1  COc1cc(C(=O)Nc2ccc3c(c2)C(=O)CC(c2ccc(C(C)(C)C)cc2)O3)cc(OC)c1OC (centres undefined)               10
2  COc1cc(C(=O)Nc2ccc3c(c2)C(=O)CC(c2ccccc2)O3)cc(OC)c1OC (centres undefined)               10

Now look at this entry.
Incoming: Please give measured ECmax of the following entry: COc1cc(C(=O)Nc2ccc3c(c2)C(O)CC(c2cccc(C)c2)O3)cc(OC)c1OC (centres undefined)
Outgoing: 100

---

- assay.notes: Clearance in Sprague-Dawley rat at 10 mg/kg, po by LC-MS/MS analysis
- Format: ADME, organism-based
- condition: in vivo
result.type: CL/F (L/h/kg)
Please respond with the number in L/h/kg and leave the unit unwritten.

Incoming: Please give measured CL/F of the following entry: COc1cccc(C2CC(=O)c3cc(NC(=O)c4cc(OC)c(OC)c(OC)c4)ccc3O2)c1 (racemic)
Outgoing: 1.54

---

- assay.notes: Cmax in Sprague-Dawley rat at 5 mg/kg, po by LC-MS/MS analysis
- Format: ADME, organism-based
- Parameters: route oral, dose 5 mg/kg
- condition: in vivo
result.type: Cmax (ng/mL)
Please respond with the number in ng/mL and leave the unit unwritten.

Incoming: Please give measured Cmax of the following entry: COc1cccc(C2CC(=O)c3cc(NC(=O)c4cc(OC)c(OC)c(OC)c4)ccc3O2)c1 (racemic)
Outgoing: 736
